// provenance: patent US20240408169A1

Here the recorded GI50 is given for each entry.
Tested on: NCI-H1048 cells
Experiment: MTT proliferation assay, NCI-H1048;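 also: Dose-response in 96-well plates over 8 or 10 concentration points, with exposure spanning 3-4 cell doublings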
Format: cell-based
Conditions: 5 days compound exposure, 1:3 serial dilution starting at 10 μM
*1 amine or outer side, *2 acyl side, *3 side chain or, on linkers, in order; H or OH if unused. Where a SMILES comes first, the peptide text is derived from it. Bridges are numbered along the chain shown (N, C = ends). [ ]: non-standard residue; d: D form. The star is where a group is joined. X137 = CN([C@@H](Cc1cc(F)ccc1-c1cnn(S(C)(=O)=O)c1)C(=O)[*:2])[*:1]; X116 = CN([C@@H](Cc1cc(Cl)ccc1-c1cnc2c(c1)ncn2C)C(=O)[*:2])[*:1]; NMehhhLys(Me) = CN([C@@H](CCCCCCCN(C)[*:3])C(=O)[*:2])[*:1]; NMe(hhhLys) = CN([C@@H](CCCCCCCN[*:3])C(=O)[*:2])[*:1]; X214 = CC(C)Cc1ccc(Cl)cc1C[C@@H](C(=O)[*:2])N(C)[*:1]; cBuCO(3,3-F2-1-CF3) = O=C(C1(C(F)(F)F)CC(F)(F)C1)*; NMePhe(2,5-Cl2) = CN[C@@H](Cc1cc(Cl)ccc1Cl)C(=O)O; Pro(trans-4-F) = O=C(O)[C@@H]1C[C@@H](F)CN1; Gly(cPr) = N[C@H](C(=O)O)C1CC1

Molecule	Value units	GI50
CC(C)C[C@@H]1NC(=O)[C@@H](N(C)C(=O)[C@@H](NC(=O)[C@@H]2C[C@@H](F)CN2C(=O)C2(C(F)(F)F)CC(F)(F)C2)C2CC2)CC=CCCCCNC(=O)[C@H](Cc2cc(Cl)ccc2C2=CCN(C(=O)C(C)C)CC2)N(C)C1=O	nM	260
CC(C)C[C@@H]1NC(=O)[C@@H](N(C)C(=O)[C@@H](NC(=O)[C@@H]2C[C@@H](F)CN2C(=O)C2(C(F)(F)F)CC(F)(F)C2)C2CC2)CCC=CCCCNC(=O)[C@H](Cc2cc(Cl)ccc2-c2cnn(S(C)(=O)=O)c2)N(C)C1=O	nM	30
CC(C)C[C@@H]1NC(=O)[C@@H](N(C)C(=O)[C@@H](NC(=O)[C@@H]2C[C@@H](F)CN2C(=O)C2(C(F)(F)F)CC(F)(F)C2)C2CC2)CCCCCCCN(C)C(=O)[C@H](Cc2cc(Cl)ccc2Cl)N(C)C1=O [Example 25] ({cBuCO(3,3-F2-1-CF3)}-[Pro(trans-4-F)][Gly(cPr)][NMehhhLys(Me)]L[NMePhe(2,5-Cl2)]; lactam 3-C)	nM	30
CC(C)C[C@@H]1NC(=O)[C@@H](N(C)C(=O)[C@@H](NC(=O)[C@@H]2C[C@@H](F)CN2C(=O)C2(C(F)(F)F)CC(F)(F)C2)C2CC2)CCCCCCCN(C)C(=O)[C@H](Cc2cc(F)ccc2-c2cnn(S(C)(=O)=O)c2)N(C)C1=O [Example 95] ({cBuCO(3,3-F2-1-CF3)}-[Pro(trans-4-F)][Gly(cPr)][NMehhhLys(Me)]L[X137]; lactam 3-C)	nM	10
CC(C)C[C@@H]1NC(=O)[C@@H](N(C)C(=O)[C@@H](NC(=O)[C@@H]2C[C@@H](F)CN2C(=O)C2(C(F)(F)F)CC(F)(F)C2)C2CC2)CCCCCCCN(C)C(=O)[C@H](Cc2cc(Cl)ccc2-c2cnc3c(c2)ncn3C)N(C)C1=O [Example 177] ({cBuCO(3,3-F2-1-CF3)}-[Pro(trans-4-F)][Gly(cPr)][NMehhhLys(Me)]L[X116]; lactam 3-C)	nM	10
CC(C)Cc1ccc(Cl)cc1C[C@H]1C(=O)NCCCCCCC[C@H](N(C)C(=O)[C@@H](NC(=O)[C@@H]2C[C@@H](F)CN2C(=O)C2(C(F)(F)F)CC(F)(F)C2)C2CC2)C(=O)N[C@@H](CC(C)C)C(=O)N1C [Example 64] ({cBuCO(3,3-F2-1-CF3)}-[Pro(trans-4-F)][Gly(cPr)][NMe(hhhLys)]L[X214]; lactam 3-C)	nM	510
